- procedure_summary: in vitro
- applied_conditions: human, hek293t cells
Mark yes (1) only for viability at 48 h, 25 µM values smaller than 60%; exact matches and larger values are no (0).

These solved cases illustrate the format of a correct answer.
INSERT INTO assay_data (molecule, class_name) VALUES
  ('N#CC(C(=O)Nc1ccccc1)=C1NCCCN1', 'no (0)'),
  ('O=C(CCl)Nc1oncc1-c1ccccc1', 'yes (1)'),
  ('CC(Cl)C(=O)Nc1ccc(F)c(F)c1F (centres unmarked)', 'no (0)'),
  ('C=CC(=O)N(Cc1ccccc1)C1CCOc2ccc(OC)cc21 (centres unmarked)', 'no (0)'),
  ('O=C(CCl)N(CC=Cc1ccccc1)c1ccc2c(c1)OCCO2', 'yes (1)');

Query :: Please indicate whether the reported viability at 48 h, 25 µM of "COc1cc(NC(=O)CCl)c(OC)cc1Cl" is strictly below 60%.
Result :: yes (1)

Query :: Determine if "C=CC(=O)Nc1cnn(-c2ccncc2)c1C(F)F" shows viability at 48 h, 25 µM strictly lower than 60%.
Result :: no (0)

Query :: Dear reviewer, please state whether "COc1cccc(C=C(C#N)C(=O)Nc2ccccc2C(=O)O)c1" has viability at 48 h, 25 µM strictly beneath 60%.
Result :: no (0)

Query :: Say whether its viability at 48 h, 25 µM is strictly beneath 60%. Entry: "N#CC(=Cc1ccsc1)C(=O)Nc1cccc2ccccc12"
Result :: no (0)

Query :: Quick check: viability at 48 h, 25 µM of "C=CC(=O)Nc1ccccc1-n1nccn1" under 60%?
Result :: no (0)

Query :: Please indicate whether the reported viability at 48 h, 25 µM of "CCCCNC(=O)C(C#N)=Cc1ccc(Cl)cc1" is strictly below 60%.
Result :: no (0)

Query :: Please check: viability at 48 h, 25 µM for "N#CC(=Cc1cc(C#N)cs1)C(=O)NC(N)=O" , strictly under 60% or not?
Result :: no (0)

Query :: is_below(viability at 48 h, 25 µM, 60%) for COc1cc(C=C(C#N)C(=O)Nc2cccc(C)c2)c2c(c1)CC(C)O2 (centres unmarked) ?
Result :: no (0)

Query :: Is it true that viability at 48 h, 25 µM reported for CC(Cl)C(=O)N1CCN(Cc2cnn(-c3ccccc3)c2)CC1 (centres unmarked) is less than 60%?
Result :: no (0)

Query :: Dear reviewer, please state whether "Cc1cc(C)cc(-n2c(C)cc(C(=O)CCl)c2C)c1" has viability at 48 h, 25 µM strictly beneath 60%.
Result :: yes (1)

Query :: Please let me know if "C=CC(=O)NCCC(=O)N1CCN(c2ccc(C#N)cc2F)CC1" shows viability at 48 h, 25 µM below 60%.
Result :: yes (1)

Query :: Quick check: does O=C(CCl)NC(c1ccccc1)C1CC1 (centres unmarked) have viability at 48 h, 25 µM under 60%?
Result :: no (0)

Query :: Would you kindly verify if viability at 48 h, 25 µM of C=CC(=O)N1CCOC(c2ccc(F)c(C)c2)C1 (centres unmarked) is strictly less than 60%?
Result :: yes (1)

Query :: Determine whether this molecule shows viability at 48 h, 25 µM lower than 60% (ties excluded): "Cc1ccc(C=C(C#N)C(N)=O)c(C)c1"
Result :: no (0)
